# Measured Target: AadA wild type (Salmonella typhimurium, UniProt Q8ZPX9)
# Construct: made in house; host or cells: Escherichia coli BL21 Star
# Sequence (Q8ZPX9 whole entry): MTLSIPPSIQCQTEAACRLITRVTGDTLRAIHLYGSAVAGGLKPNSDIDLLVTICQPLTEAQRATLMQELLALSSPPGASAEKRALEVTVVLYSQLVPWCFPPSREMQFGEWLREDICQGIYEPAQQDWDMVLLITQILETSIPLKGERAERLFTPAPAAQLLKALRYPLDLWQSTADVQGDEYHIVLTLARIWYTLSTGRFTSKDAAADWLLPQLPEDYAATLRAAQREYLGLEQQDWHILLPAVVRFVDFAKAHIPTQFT
# Measurement Protocol: ITC binding, wild-type AadA
# Design: species or system Salmonella enterica
# Experimental Context: ITC, wild-type AadA; read-out: K d of ATP
# Protocol: Binding studies were performed at 25°C using a MicroCal iTC200 instrument (GE Healthcare). […] The data were analyzed using the MicroCal Analysis plugin in Origin. All ITC data were analyzed assuming one set of binding sites. […]
Endpoint Name: Kd

{"Structure Notation": "Nc1ncnc2c1ncn2[C@@H]1O[C@H](COP(=O)(O)OP(=O)(O)OP(=O)(O)O)[C@@H](O)[C@H]1O", "Value Reported": "13 µM"}

The measurements presented in this section are drawn from paper PMC4631478.
